- EXPERIMENTAL_SYSTEM: Protein phosphatase 1D (Homo sapiens)
- PROTOCOL_NOTES: RapidFire Mass Spectrometry qHTS Assay for Modulators of WT P53-Induced Phosphatase 1 (WIP1) (AID 1347424);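 note: amount of dephosphorylated VEPPL-S-QETFS peptide product formed by WIP1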
- APPLIED_CONDITIONS: WIP1 dephosphorylation of phosphopeptide, RapidFire MS; series mostly up to 63 µM
Inconclusive results are not listed. Calls of active or inactive are those of the source. Calls come from the whole dose curve; as a rule, active = well fitted inhibition curve with a large enough effect; inconclusive = small, poorly fitted or top-dose-only effect; inactive = no such curve, though single readings can be large or run the other way.
// classify into active, inactive

The following molecules have reported results that may help.
# MOLECULE, DISCRETE_LABEL
data = [
    ("Cc1ccc(-n2[nH]c(C)c(N=Nc3cccc(-c4cccc(C(=O)O)c4)c3O)c2=O)cc1C", "active"),
    ("N[C@H]1CN(c2c(F)cc3c(=O)c(C(=O)O)cn(C4C[C@@H]4F)c3c2Cl)CC12CC2 (stereo not given in full)", "inactive"),
]

Which outcome was assigned to `CCn1c(=O)c2c(nc(C=Cc3ccc(OC)c(OC)c3)n2C)n(CC)c1=O` in this test?
inactive

Which outcome was assigned to `CCCCC(=O)O[C@]1(C(=O)CO)[C@@H](C)C[C@H]2[C@@H]3CCC4=CC(=O)C=C[C@]4(C)[C@@]3(F)[C@@H](O)C[C@@]21C` in this test?
inactive

Which outcome was assigned to Cc1ccccc1C(=O)Nc1ccc(C(=O)N2CCCC(O)c3cc(Cl)ccc32)c(C)c1 (stereo not given) in this test?
inactive

###

- PROTOCOL_NOTES: Quantitative High-Throughput drug screen in 47 multiple myeloma cell lines against the NCATS MIPE library collection: KMS12BM_JCRB cell viability assay (AID 1918971); note: nearly all actives have a fitted effect of over 35% in size
- APPLIED_CONDITIONS: KMS12BM myeloma viability, CellTiter-Glo ATP, 48 h; series mostly up to 45.8 µM
Records with an inconclusive call do not appear. Activity calls are given as the source filed them. Calls follow the shape of the dose curve; as a rule, active = well fitted cell-killing curve with a large enough effect; inconclusive = small, poorly fitted or top-dose-only effect, or effect the other way; inactive = no such curve, though single readings can be large or run the other way.
// classify into active, inactive

# STRUCTURE_AS_SMILES, DISCRETE_LABEL
data = [
    ("COc1cc(OC)cc(-c2ccc3ncc4ccc(=O)n(-c5ccc(N6CCNCC6)c(C(F)(F)F)c5)c4c3c2)c1", "active"),
    ("Cn1cc(C[C@@H](N)C(=O)O)c2ccccc21", "active"),
    ("C=C1C[C@@]2(O)O[C@@]3(C[C@H]2C(C)C)[C@H](C)CC[C@H]13", "inactive"),
    ("CO[C@@H]1[C@@H](O)[C@H](O)[C@@H](n2c3c(Cl)cccc3c3c4c(c5c6cccc(Cl)c6[nH]c5c32)C(=O)NC4=O)O[C@@H]1CO", "active"),
    ("CC1(C)O[C@@H]2C[C@H]3[C@@H]4CCC5=CC(=O)C=C[C@]5(C)[C@@H]4[C@@H](O)C[C@]3(C)[C@]2(C(=O)CO)O1", "inactive"),
]

Read the next record carefully.
Which outcome was assigned to `OCCN1C[C@H](O)[C@@H](O)[C@H](O)[C@@H]1CO` in this test?
inactive

###

- PROTOCOL_NOTES: qHTS Screen of the MIPE 4.0 Collection Against Ewings Sarcoma (EW8) (AID 1259255); note: nearly all actives have a fitted effect of over 35% in size;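 for viability: 100% = DMSO-treated cells and 0% = medium-only wells without cells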
- APPLIED_CONDITIONS: EW8 Ewing sarcoma viability, CellTiter-Glo, 48 h; series mostly up to 45.8 µM
Results filed as inconclusive are left out. Activity calls are given as the source filed them. Calls follow the shape of the dose curve; as a rule, active = well fitted inhibition curve with a large enough effect; inconclusive = small, poorly fitted or top-dose-only effect; inactive = no such curve, though single readings can be large or run the other way.
// classify into class 1 = active, class 0 = inactive

The following molecules have reported results that may help.
# MOLECULE, DISCRETE_LABEL
data = [
    ("N#CC(=Cc1ccc(O)c(O)c1)C(=O)NCc1ccccc1", "class 1"),
    ("C[C@](Cc1c[nH]c2ccccc12)(NC(=O)OC1C2CC3CC(C2)CC1C3)C(=O)NC[C@H](NC(=O)CCC(=O)O)c1ccccc1 (some centres not stated)", "class 0"),
    ("COC(=O)C1C2CC3c4[nH]c5cc(OC)ccc5c4CCN3CC2CC(OC(=O)c2cc(OC)c(OC)c(OC)c2)C1OC (configuration not stated)", "class 1"),
    ("CC(C(C)N1CC(=O)NC(=O)C1)N1CC(=O)NC(=O)C1 (configuration not stated)", "class 1"),
    ("CC(C)(N)c1ccc(-c2nc3ccccc3nc2-c2ccccc2)cc1", "class 1"),
    ("CN[C@H]1[C@@H](O)[C@@H]2O[C@@H]3O[C@H](C)CC(=O)[C@]3(O)O[C@@H]2[C@@H](NC)[C@H]1O", "class 1"),
]

Which outcome was assigned to `C[C@]12C=CC(=O)N[C@@H]1CC[C@H]1[C@H]3CC[C@@H](C(=O)Nc4cc(C(F)(F)F)ccc4C(F)(F)F)[C@@]3(C)CC[C@@H]12` in this test?
class 0

Which outcome was assigned to CC(=O)C1=C(O)C=C2Oc3c(C(C)=O)c(O)c(C)c(O)c3C2(C)C1=O (configuration not stated) in this test?
class 0

Which outcome was assigned to O=C1NC(O)CCN1[C@@H]1O[C@H](CO)[C@H](O)[C@H]1O (some centres not stated) in this test?
class 0

Which outcome was assigned to `N#Cc1ccc(COC[C@H]2O[C@@H](n3c(NCc4ccc(Cl)c(Cl)c4)nc4c(N)ncnc43)[C@@H](O)[C@@H]2O)cc1` in this test?
class 1

Which outcome was assigned to `CC(=O)NCC(=O)N1[C@H]2CC[C@H]1c1cc(Nc3ncc(C(F)(F)F)c(NC4CCC4)n3)ccc12` in this test?
class 1

Which outcome was assigned to `CN1C(C(=O)Nc2ccccn2)=C(O)c2sc(Cl)cc2S1(=O)=O` in this test?
class 1

Which outcome was assigned to `COc1ccc(S(=O)(=O)Nc2cc(-c3c(O)ccc4ccccc34)c(O)c3ccccc23)cc1` in this test?
class 1

Which outcome was assigned to `CC(=O)O[C@H]1C[C@@H]2CC[C@H]3[C@H]4C[C@H]([N+]5(C)CCCCC5)[C@@H](OC(C)=O)[C@@]4(C)CC[C@@H]3[C@@]2(C)C[C@H]1[N+]1(C)CCCCC1` in this test?
class 1

Which outcome was assigned to `N=c1ccn2c(n1)O[C@H]1[C@@H](O)[C@@H](CO)O[C@H]12` in this test?
class 1

Which outcome was assigned to `Cc1cnc(Nc2ccc(N3CCN(C)CC3)cc2)nc1Nc1cccc(S(=O)(=O)NC(C)(C)C)c1` in this test?
class 1

Which outcome was assigned to COc1ccc2c(c1OC)C(=O)OC2[C@H]1c2c(cc3c(c2OC)OCO3)CCN1C (some centres not stated) in this test?
class 1

###

- PROTOCOL_NOTES: qHTS drug screen for cell cycle checkpoint inhibitors in PARPi-resistant BRCA-mutant ovarian cancer cell lines. (AID 1963452)
- APPLIED_CONDITIONS: PEO1/OlaR viability, CellTiter-Glo luminescence, 96 h; active compounds read low
Labels assigned by Z-AUC range: c1 = under -0.2, c2 = from -0.2 up to 0.4, c3 = 0.4 and over

# COMPOUND, DISCRETE_LABEL
records = [
    ("CCc1nc(-c2cccc(C)c2)c(-c2ccnc(NC(=O)c3ccccc3)c2)s1", "c1"),
]

Read the next record carefully.
Exam item: assign `C[C@H](NC(=O)[C@@H](O)c1cc(F)cc(F)c1)C(=O)N[C@@H]1C(=O)N(C)c2ccccc2-c2ccccc21` to the correct category.
c3

###

- PROTOCOL_NOTES: qHTS of pediatric cancer cell lines to identify multiple opportunities for drug repurposing: Primary screen for Rh41 cells (AID 1347108); note: nearly all actives have a fitted effect of over 70% in size
- APPLIED_CONDITIONS: Rh41 rhabdomyosarcoma viability, CellTiter-Glo luminescence, 48 h; series mostly up to 46 µM
Results filed as inconclusive are left out. Active and inactive are the calls of the source. Calls come from the whole dose curve; as a rule, active = well fitted cell-killing curve with a large enough effect; inconclusive = small, poorly fitted or top-dose-only effect; inactive = no such curve, though single readings can be large or run the other way.
// classify into active, inactive

Which outcome was assigned to `CC(C)(C)[N+]([O-])=Cc1ccc(S(=O)(=O)O)cc1S(=O)(=O)O` in this test?
inactive

Which outcome was assigned to `Cc1cc(O)c2c(c1)C(=O)c1cccc(O)c1C2=O` in this test?
inactive

Which outcome was assigned to `COc1ccc2cc([S+]([O-])Cc3ncc(C)c(OC)c3C)nc2c1` in this test?
inactive

Which outcome was assigned to `C[N+]1(C)[C@@H]2C[C@@H](OC(=O)C(O)(c3cccs3)c3cccs3)C[C@H]1[C@@H]1O[C@@H]12` in this test?
inactive

Which outcome was assigned to `NC(=O)Nc1cc(-c2ccc(CN3CCOCC3)cc2)sc1C(N)=O` in this test?
active

Which outcome was assigned to `C=C(C)[C@@H]1CC[C@]2(C(=O)O)CC[C@]3(C)[C@H](CC[C@@H]4[C@@]5(C)CC[C@H](O)C(C)(C)[C@@H]5CC[C@]43C)[C@@H]12` in this test?
inactive

Which outcome was assigned to `OCCN1C[C@H](O)[C@@H](O)[C@H](O)[C@@H]1CO` in this test?
inactive

Which outcome was assigned to `c1cc(CN2CCCNCCNCCCNCC2)ccc1CN1CCCNCCNCCCNCC1` in this test?
inactive

Which outcome was assigned to `CCc1c(O)cc(O)c(C(=O)c2ccc(OCCN3CCOCC3)c(OC)c2)c1CC(=O)N(CCOC)CCOC` in this test?
active
